# EXPERIMENTAL PROTOCOL: logP by HPLC on reversed-phase column (EEC Directive 79/831 Annex V.A8)
# Assay type: physicochemical
# CONDITION NOTES: HPLC on reversed-phase column (C 18), 40° C., 0.1% aqueous formic acid and acetonitrile, linear gradient 10% to 90% acetonitrile

- COMPOUND: "Cn1ccc(C2(NC(=O)c3c(C(F)F)nn(C)c3F)CCCC2)n1 [Example 26]"
  logP: 2.25
- COMPOUND: "Cn1nc(C(F)F)c(C(=O)NC2(c3cc4ccccc4o3)CCCC2)c1Cl [Example 74]"
  logP: 3.70
- COMPOUND: "CC(c1cc(Cl)sc1Cl)N(C(=O)c1c(C(F)F)nn(C)c1F)C1CC1 (stereo not drawn) [Example 128]"
  logP: 4.03
- COMPOUND: "CC(C1CC1)N(Cc1ccco1)C(=O)c1c(C(F)F)nn(C)c1Cl (stereo not drawn) [Example 2]"
  logP: 2.98
- COMPOUND: "Cn1nc(C(F)F)c(C(=O)N(Cc2cccs2)C2CC2)c1F [Example 32]"
  logP: 2.59
- COMPOUND: "Cc1nc(-c2ccccc2)sc1CN(C)C(=O)c1c(C(F)F)nn(C)c1Cl [Example 148]"
  logP: 2.90
- COMPOUND: "CN(Cc1cncc(Cl)c1)C(=O)c1c(C(F)F)nn(C)c1Cl [Example 55]"
  logP: 1.90
- COMPOUND: "Cc1ccsc1CN(C)C(=O)c1c(C(F)F)nn(C)c1F [Example 42]"
  logP: 2.44
- COMPOUND: "CC(c1cnc(Cl)c(Cl)c1)N(C(=O)c1c(C(F)F)nn(C)c1F)C1CC1 (stereo not drawn) [Example 121]"
  logP: 3.11
